Value source: paper PMC2586299

# system: T1, GST-CHMP6 without the final 20 residues (human, UniProt Q96FZ7 1-181)
# T1 sequence (looked up): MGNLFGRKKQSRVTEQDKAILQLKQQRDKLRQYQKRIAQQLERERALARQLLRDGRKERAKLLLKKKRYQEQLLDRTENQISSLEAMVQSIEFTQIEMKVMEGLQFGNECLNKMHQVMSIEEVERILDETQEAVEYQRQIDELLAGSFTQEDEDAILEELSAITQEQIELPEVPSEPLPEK
# method summary: SPR

- binder: "VPS4A MIT domain (VPS4A residues 1−84) (domain or fragment, human, UniProt Q9UN37 1-84, looked up) MTTSTLQKAIDLVTKATEEDKAKNYEEALRLYQHAVEYFLHAIKYEAHSDKAKESIRAKCVQYLDRAEKLKDYLRSKEKHGKKP"
  Kd: "23.2 µM"
